Data origin, for the record: the supplement of paper PMC8975748

System: Saccharomyces cerevisiae BY4741 SeMeCo community
Assay: z-score of prototroph abundance vs DMSO median; higher = larger share of this subpopulation than in DMSO controls
Conditions: 10 µM; 24 h; SM minimal medium; subpopulation (auxotrophy): Prototroph
Where a name gives a salt, the structure may show the parent alone.
Please enter TRUE where z-score of prototroph abundance is greater than or equal to -0.09, and FALSE where it is lower.

stdin: Does the compound CC[C@@H]([C@H](C)O)n1ncn(-c2ccc(N3CCN(c4ccc(OC[C@@H]5CO[C@@](Cn6cncn6)(c6ccc(F)cc6F)C5)cc4)CC3)cc2)c1=O have recorded z-score of prototroph abundance that is -0.09 or more?
stdout: FALSE

stdin: Say whether COC(=O)C1=C(C)NC(C)=C(C(=O)OCCN2CCN(C(c3ccccc3)c3ccccc3)CC2)C1c1cccc([N+](=O)[O-])c1 (stereo not drawn) [Manidipine] shows z-score of prototroph abundance of -0.09 or more.
stdout: FALSE

stdin: Hello, I need to know if C=C1CCC2C(C)(CO)C(O)CCC2(C)C1CC=C1C=COC1=O (stereo not drawn) [Dehydroandrographolide] has measured z-score of prototroph abundance not below -0.09. Thanks!
stdout: FALSE

stdin: In plain terms: is recorded z-score of prototroph abundance at least -0.09 for COc1ccc(C(=O)NCc2ccc(OCCN(C)C)cc2)cc1OC [Itopride hydrochloride] ?
stdout: FALSE

stdin: Does the reported z-score of prototroph abundance for O=C(O)CCc1nc(-c2ccccc2)c(-c2ccccc2)o1 fall at or above the -0.09 mark?
stdout: TRUE

stdin: Please check the record Cc1ccc(Sc2ccccc2N2CCNCC2)c(C)c1 and state if its z-score of prototroph abundance is at or above -0.09.
stdout: TRUE

stdin: Confirm if z-score of prototroph abundance reported for the compound C[C@]12CCC3=C4CCC(=O)C=C4CC[C@H]3[C@@H]1CC[C@@]2(O)CC#N is -0.09 or above.
stdout: TRUE
